Data provenance: PubChem BioAssay (NCATS)

# test: qHTS of pediatric cancer cell lines to identify multiple opportunities for drug repurposing: Confirmatory screen for DAOY cells (AID 1347114); note: nearly all actives have a fitted effect of over 65% in size; note: potency is the fitted concentration of half-maximal effect
# experimental parameters: DAOY medulloblastoma cells viability, cytotoxicity qHTS; series mostly up to 45.9 µM
Inconclusive results are not listed. Activity calls are given as the source filed them. Calls come from the whole dose curve; as a rule, active = well fitted cell-killing curve with a large enough effect; inconclusive = small, poorly fitted or top-dose-only effect; inactive = no such curve, though single readings can be large or run the other way.
quantity measured: Potency

Use these answered entries as a reference point.
compound="CCN(CC)CCCC(C)Nc1ccnc2cc(Cl)ccc12 (stereo not drawn)" reading=inactive
compound=CCC(C)(C)C(=O)O[C@H]1C[C@@H](C)C=C2C=C[C@H](C)[C@H](CC[C@@H]3C[C@@H](O)CC(=O)O3)[C@H]21 reading="5.85 µM (active)"
compound=CC(C=CC1=C(C)CCCC1(C)C)=CC=CC(C)=CC(=O)O reading=inactive
compound=Cc1cn[nH]c1 reading=inactive
compound=COCC(=O)NCC=Cc1ccc2ncnc(Nc3ccc(Oc4ccc(C)nc4)c(C)c3)c2c1 reading="16.5 µM (active)"

response.value for COc1cc2nccc(Oc3ccc(NC(=O)NC4CC4)c(Cl)c3)c2cc1C(N)=O (field: Potency) = inactive

response.value for COc1ccc(-c2oc3cc(OC)ccc3c2C(=O)c2ccc(C#N)cc2)cc1 (field: Potency) = inactive

response.value for O=C(NOC[C@H](O)CO)c1ccc(F)c(F)c1Nc1ccc(I)cc1F (field: Potency) = inactive

response.value for COc1ccc(-c2ccc3c(N4CCOCC4)nc(N4C[C@@H](C)O[C@@H](C)C4)nc3n2)cc1CO (field: Potency) = 9.27 µM (active)

response.value for CN(C)c1ccc(C2Nc3ccc4ccccc4c3C3=C2C(=O)CC(C)(C)C3)cc1Br (stereo not drawn) (field: Potency) = inactive

response.value for Nc1nc2c(ncn2COCCO)c(=O)[nH]1 (field: Potency) = inactive

response.value for CNCc1ccc(-c2[nH]c3cc(F)cc4c3c2CCNC4=O)cc1 (field: Potency) = inactive

response.value for NC(N)=NC(=O)c1nc(Cl)c(N)nc1N (field: Potency) = inactive

----------
# study system: ATP-dependent 6-phosphofructokinase (Trypanosoma brucei brucei)
# test: qHTS Validation Assay to Find Inhibitors of T. brucei phosphofructokinase (AID 485368)
# experimental parameters: T. brucei PFK enzyme assay, qHTS 7-point titration; at 57.5 µM (top of the series); series mostly up to 57.5 µM
Records with an inconclusive call do not appear. Activity calls are given as the source filed them. The call rests on the fitted dose curve; in most records, active means well fitted inhibition curve with a large enough effect; inconclusive means small, poorly fitted or top-dose-only effect, or effect the other way; inactive means flat fitted curve, though single readings scatter.
quantity measured: outcome

Use these answered entries as a reference point.
compound="Cc1ccccc1C(OCCN(C)C)c1ccccc1 (stereo not drawn)" quantity_measured=outcome reading=inactive
compound=Nc1ccc(S(=O)(=O)Nc2ccnn2-c2ccccc2)cc1 quantity_measured=outcome reading=inactive
compound=O=c1[nH]cnc2[nH]ncc12 quantity_measured=outcome reading=inactive
compound=Cc1oncc1C(=O)Nc1ccc(C(F)(F)F)cc1 quantity_measured=outcome reading=inactive
compound="CCN(CC)CCCC(C)Nc1ccnc2cc(Cl)ccc12 (stereo not drawn)" quantity_measured=outcome reading=inactive
compound=CCCC(CCC)C(=O)O quantity_measured=outcome reading=inactive

response.value for NC(N)=NC(=O)c1nc(Cl)c(N)nc1N (field: outcome) = inactive

response.value for Cc1ccc(N(CC2=NCCN2)c2cccc(O)c2)cc1 (field: outcome) = inactive

response.value for CCOC(=O)C1=C[C@]2(CC)CCCN3CCc4c(n1c1ccccc41)[C@@H]32 (field: outcome) = inactive

response.value for Clc1cccc(Cl)c1NC1=NCCN1 (field: outcome) = inactive

response.value for Nc1ncnc2nc(-c3ccc(N4CCOCC4)nc3)cc(-c3cccc(Br)c3)c12 (field: outcome) = inactive

response.value for OC(CN1CCC(Cc2ccc(F)cc2)CC1)c1ccc(Cl)cc1 (stereo not drawn) (field: outcome) = inactive

response.value for O=C1CCC(N2C(=O)c3ccccc3C2=O)C(=O)N1 (stereo not drawn) (field: outcome) = inactive

----------
# reported remaining parasite growth % (stronger effect = lower value); entries follow
# test: qHTS profiling for inhibitors of Plasmodium falciparum (3D7) proliferation (AID 743322);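 note: infected erythrocytes exposed to compound for 72 h before lysis; 100% = DMSO vehicle wells and 0% = 0.29 µM artemisinin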
# experimental parameters: P. falciparum 3D7 proliferation; at 28.7 µM (top of the series) unless noted
Numeric only. Scale: %

compound=O=C(Nc1cccnc1)N1CCC(Cc2cccc(Oc3ccc(C(F)(F)F)cn3)c2)CC1 reading=8.79
compound=Clc1ccc(Nc2nnc(Cc3ccncc3)c3ccccc23)cc1 reading=-0.114
compound=NC(=O)c1ccc(-c2nc(-c3ccc4c(c3)OCO4)c(-c3ccccn3)[nH]2)cc1 reading=82.3
compound=C/C(=C\C(=O)Nc1ccccc1C(=O)O)c1ccc2ccccc2c1 reading=32.7
compound="CCC(C)N(C)C(=O)c1cc2ccccc2c(-c2ccccc2Cl)n1 (stereo unspecified)" reading=86.5
compound=OCCC#Cc1nc(-c2ccc(F)cc2)c(-c2ccncc2)n1CCCc1ccccc1 reading=1.18
compound=O=S(=O)(N=Cc1c(O)ccc2ccccc12)c1cccs1 reading=85.7
compound="CCC(C)n1ncn(-c2ccc(N3CCN(c4ccc(OC[C@H]5CO[C@](Cn6cncn6)(c6ccc(Cl)cc6Cl)O5)cc4)CC3)cc2)c1=O (stereo partly specified)" reading=3.74

response.value for Cc1cc(C=c2sc3nc4ccccc4n3c2=O)c(C)n1-c1ccccc1 (field: remaining parasite growth % (stronger effect = lower value)) = 37.9

response.value for Cc1cc2c(F)c(Oc3ncnn4cc(OC[C@@H](C)O)c(C)c34)ccc2[nH]1 (field: remaining parasite growth % (stronger effect = lower value)) = 101

response.value for CCn1c(-c2nonc2N)nc2c(C#CC(C)(C)O)ncc(OC[C@H]3CCCNC3)c21 (field: remaining parasite growth % (stronger effect = lower value)) = 5.66

response.value for COc1cc(Oc2ccnc3cc(OC)c(OC)cc23)ccc1NC(=O)NC(C)c1nccs1 (stereo unspecified) (field: remaining parasite growth % (stronger effect = lower value)) = 69.7

response.value for CCN(c1ccccc1)c1cc(NC)[n+](C)c(C)n1 (field: remaining parasite growth % (stronger effect = lower value)) = 76.6

----------
# test: Quantitative High-Throughput drug screen in 47 multiple myeloma cell lines against the NCATS MIPE library collection: OCIMY7_PLB cell viability assay (AID 1918987); note: nearly all actives have a fitted effect of over 65% in size
# experimental parameters: OCI-MY7 myeloma viability, CellTiter-Glo ATP, 48 h; series mostly up to 45.8 µM
Results filed as inconclusive are left out. The source made the active and inactive calls. Calls come from the whole dose curve; as a rule, active = well fitted cell-killing curve with a large enough effect; inconclusive = small, poorly fitted or top-dose-only effect, or effect the other way; inactive = no such curve, though single readings can be large or run the other way.
I would appreciate it if you answered using one of these outcomes: 1.0 = active, 0.0 = inactive

Here are 5 compounds together with their reported answers.
smiles_entry=O=C(Nc1ccc(F)c(C(F)(F)F)c1)Nc1nnc(-c2ccncc2)s1 label_value=0.0
smiles_entry=Cc1cc(-c2ccc(CC(=O)Nc3ccc(-c4cccnc4)cc3)cc2)ccn1 label_value=1.0
smiles_entry=CCOc1ccc(Cc2cc([C@@H]3O[C@H](CO)[C@@H](O)[C@H](O)[C@@H]3O)ccc2Cl)cc1 label_value=1.0
smiles_entry=Nc1nc2[nH]cc(CCc3ccc(C(=O)N[C@@H](CCC(=O)O)C(=O)O)cc3)c2c(=O)[nH]1 label_value=0.0
smiles_entry=CC(=O)Oc1ccccc1C(=O)O label_value=1.0

Please let me know the test result on file for O=C(O)[C@@H](c1ccc(OCc2ccc3ccccc3n2)cc1)C1CCCC1 .
1.0

Please let me know the test result on file for COc1ccc2c3n(c(=NC(=O)c4cccnc4)nc2c1OC)CCN3 .
1.0

----------
# test: Quantitative High-Throughput drug screen in 47 multiple myeloma cell lines against the NCATS MIPE library collection: NCIH929_DSMZ cell viability assay (AID 1918978); note: nearly all actives have a fitted effect of over 35% in size
# experimental parameters: NCI-H929 myeloma viability, CellTiter-Glo ATP, 48 h; series mostly up to 45.8 µM
Results filed as inconclusive are left out. The source made the active and inactive calls. The call rests on the fitted dose curve; in most records, active means well fitted cell-killing curve with a large enough effect; inconclusive means small, poorly fitted or top-dose-only effect; inactive means no such curve, though single readings can be large or run the other way.
I would appreciate it if you answered using one of these outcomes: active, inactive

Here are 10 compounds together with their reported answers.
compound="CC(C[N+](C)(C)C)OC(N)=O (centres undefined)" label_value=inactive
compound="NC(=O)C1CCCc2c1[nH]c1ccc(Cl)cc21 (centres undefined)" label_value=inactive
compound=CCC(C)(C)C(=O)O[C@H]1C[C@@H](C)C=C2C=C[C@H](C)[C@H](CC[C@@H]3C[C@@H](O)CC(=O)O3)[C@H]21 label_value=active
compound=O=C(C1CC1)N1CC[C@@H](Cn2c(-c3ccc(-c4ccc5occc5c4)cc3)nc3cnccc32)C1 label_value=inactive
compound="COc1ccc(COc2cc3oc(=O)c4cc(C(C)O)ccc4c3cc2OC)cc1 (centres undefined)" label_value=active
compound=Cc1ccc(-n2nc(C(C)(C)C)cc2NC(=O)Nc2ccc(OCCN3CCOCC3)c3ccccc23)cc1 label_value=active
compound=O=C1[C@H](Cc2ccc(O)cc2)N2C(=O)CCN(C(=O)NCc3ccccc3)[C@H]2CN1Cc1cccc2ccccc12 label_value=active
compound=CC(C)(C)OC(=O)CN(Cc1ccc(Cl)cc1)Cc1ccc([N+](=O)[O-])s1 label_value=inactive
compound=CS(=O)(=O)c1cccc(CNc2nc(Nc3ccc4c(c3)CCC(=O)N4)ncc2C(F)(F)F)c1 label_value=active
compound=c1ccc([C@H]2CN3CCSC3=N2)cc1 label_value=inactive

Please let me know the test result on file for COc1ccccc1[C@H](c1cccc2ccccc12)[C@@](C)(C#N)C(=O)N1CCC(c2cccc(C(F)(F)F)c2)CC1 .
active

Please let me know the test result on file for Cc1ccnc(NS(=O)(=O)c2ccc(NC(=O)Nc3ccc(S(=O)(=O)Nc4nccc(C)n4)cc3)cc2)n1 .
inactive
